target: Olfr743 (Mus musculus, UniProt L7N1Y2); assay: Indole antagonist dose-response, cAMP HTRF in HEK293T, vs indole EC80; format: cell-based; conditions: Table 23
Sequence (L7N1Y2 entry or part of it): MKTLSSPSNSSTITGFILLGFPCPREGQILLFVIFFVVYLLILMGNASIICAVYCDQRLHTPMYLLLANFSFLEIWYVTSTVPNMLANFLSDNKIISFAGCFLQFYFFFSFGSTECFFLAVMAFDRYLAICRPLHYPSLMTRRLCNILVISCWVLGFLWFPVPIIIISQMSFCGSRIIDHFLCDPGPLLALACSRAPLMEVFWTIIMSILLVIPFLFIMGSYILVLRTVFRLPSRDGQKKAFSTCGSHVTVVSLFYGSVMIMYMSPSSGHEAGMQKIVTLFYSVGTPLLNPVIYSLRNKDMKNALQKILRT
recorded_endpoint: IC50 (µM)

- 6(8)-ISOPROPYLQUINOLINE [isopropyl quinoline]: 119

---

target: OR51E1 olfactory receptor (Homo sapiens, UniProt Q8TCB6); construct: expressed in transfected cells; test: Butyric acid olfactory receptor antagonist cell-based dose-response vs butyric acid EC80; conditions: Table 20, spiro analogues
Sequence (Q8TCB6 whole entry): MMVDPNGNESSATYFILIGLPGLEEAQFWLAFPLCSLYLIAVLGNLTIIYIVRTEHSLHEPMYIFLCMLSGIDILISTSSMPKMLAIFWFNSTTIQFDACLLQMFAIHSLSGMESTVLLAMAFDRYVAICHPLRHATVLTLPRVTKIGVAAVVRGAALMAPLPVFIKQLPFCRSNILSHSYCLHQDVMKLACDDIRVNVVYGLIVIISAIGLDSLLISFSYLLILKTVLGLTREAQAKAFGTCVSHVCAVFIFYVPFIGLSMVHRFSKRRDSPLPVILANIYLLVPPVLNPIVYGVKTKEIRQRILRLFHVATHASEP
pIC50: −log10 of the molar value.
recorded_endpoint: pIC50

- CC(=O)OC1C(C)(C)CCCC12CC(C)(C)C(C)(C)C2 (stereo not shown): 3.37
- CC(=O)OC(C1C(C)C=C(C)CC1C)C(C)(C)C (stereo not shown): 4.28
- C=C(C)CC1(CC(=C)C)CCC(C)(C)C1=O: 4.29
- C=C(C)CC1(CC(=C)C)CCCC(C)(C)C1O (stereo not shown): 3.90
- C=C1C(C)(C)CCCC12CC1(C)OC1(C)C2 (stereo not shown): 4.12
- CC(=O)OC1C(C)(C)CCCC12CC=C(C)CC2C (stereo not shown): 4.15

---

Molecular target: Olfr744 (Mus musculus)
Construct: Flag; Rho tag; expressed in transfected cells
Sequence (Q7TRM0 1-323): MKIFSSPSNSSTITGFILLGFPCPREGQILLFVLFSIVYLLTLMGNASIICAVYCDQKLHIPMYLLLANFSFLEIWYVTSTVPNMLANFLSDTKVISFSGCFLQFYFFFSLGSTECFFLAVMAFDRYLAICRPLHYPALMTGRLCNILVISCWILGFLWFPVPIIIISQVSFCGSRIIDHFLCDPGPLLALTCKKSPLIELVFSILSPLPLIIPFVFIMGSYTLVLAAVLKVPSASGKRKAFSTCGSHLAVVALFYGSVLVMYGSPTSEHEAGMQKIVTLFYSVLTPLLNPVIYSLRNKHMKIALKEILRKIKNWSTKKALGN
Experiment: Indole antagonist dose-response, cAMP HTRF in HEK293T, vs indole EC80
Type: cell-based
Conditions: Table 23
Entries annotated with measured Olfr744 % Inhibition
recorded_endpoint: Olfr744 % Inhibition (%)

- CC1(C)CCC[C@]2(C)CC(=O)CC[C@@H]12 (racemic): 107.89
- C=C1CC[C@H]2O[C@]2(C)CC[C@@H]2[C@@H]1CC2(C)C: 55.20
- CC(C)(C)C1CCC(=O)CC1: 148.19
- c1nc2c(o1)CCCCCCCCCC2: 38.37

---

biological target: Olfr746 (Mus musculus); construct: Flag; Rho tag; expressed in transfected cells; test: Indole antagonist dose-response, cAMP HTRF in HEK293T, vs indole EC80; format: cell-based; settings: Table 23
Sequence (E9Q840 1-314): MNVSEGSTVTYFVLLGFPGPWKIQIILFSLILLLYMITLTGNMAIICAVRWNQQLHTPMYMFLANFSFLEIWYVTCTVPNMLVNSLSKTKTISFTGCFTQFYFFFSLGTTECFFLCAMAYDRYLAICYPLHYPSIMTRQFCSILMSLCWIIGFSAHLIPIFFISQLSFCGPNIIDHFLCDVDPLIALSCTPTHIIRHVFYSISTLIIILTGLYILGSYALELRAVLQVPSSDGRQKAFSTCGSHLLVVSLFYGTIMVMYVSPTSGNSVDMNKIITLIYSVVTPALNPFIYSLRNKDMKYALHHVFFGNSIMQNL
The molecules listed here are annotated with their IC50.
recorded_endpoint: IC50 (µM)

- C=C1CC[C@H]2O[C@]2(C)CC[C@@H]2[C@@H]1CC2(C)C: 85.9
- C=CCCC(=O)C1=CCCC(C)(C)C1: 224
- CC1(C)CCC[C@]2(C)CC(=O)CC[C@@H]12 (racemic): 308

---

biological target: Olfr741 (Mus musculus); assay: Indole antagonist dose-response, cAMP HTRF in HEK293T, vs indole EC80; format: cell-based; conditions: Table 22, first listing
Sequence (L7N1Y5 entry or part of it): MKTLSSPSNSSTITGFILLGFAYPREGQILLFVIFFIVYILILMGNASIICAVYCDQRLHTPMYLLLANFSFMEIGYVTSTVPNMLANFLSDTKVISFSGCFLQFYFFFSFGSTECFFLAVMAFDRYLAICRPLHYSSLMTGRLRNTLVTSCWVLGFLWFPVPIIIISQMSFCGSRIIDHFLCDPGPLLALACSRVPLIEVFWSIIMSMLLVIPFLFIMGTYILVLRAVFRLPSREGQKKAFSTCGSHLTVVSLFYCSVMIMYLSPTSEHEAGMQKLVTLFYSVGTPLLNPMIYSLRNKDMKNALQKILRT
recorded_endpoint: IC50 (µM)

* 6(8)-ISOPROPYLQUINOLINE [isopropyl quinoline] | 91.6
